Data origin: patent US9115133B2

system: Recombinant JAK3 (Amino acids 781-1124) (Homo sapiens, UniProt P52333)
Construct: JAK3 (Amino acids 781-1124; NM_000215.3)
Sequence (P52333 781-1124): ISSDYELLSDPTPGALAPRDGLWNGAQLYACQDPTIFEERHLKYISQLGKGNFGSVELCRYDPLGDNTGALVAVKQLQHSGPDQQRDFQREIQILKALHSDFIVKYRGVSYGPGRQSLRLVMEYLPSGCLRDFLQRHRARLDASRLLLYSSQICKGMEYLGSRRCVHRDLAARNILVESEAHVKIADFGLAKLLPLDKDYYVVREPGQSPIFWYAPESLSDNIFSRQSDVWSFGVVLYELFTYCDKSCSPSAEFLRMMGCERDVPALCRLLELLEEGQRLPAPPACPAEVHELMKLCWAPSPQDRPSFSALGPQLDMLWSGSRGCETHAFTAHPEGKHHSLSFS
procedure.text: Kinase-Glo Luminescent Kinase Assay, recombinant JAK3
measurement.context: 200 μg/ml Poly Glu-Tyr (4:1), ATP 1 uM, 90 min room temperature, luminescence
value.type: IC50

CN(CC1CC1)C1CCN(c2ccnc3cnc4[nH]ccc4c23)C1 (stereo not drawn) [Ex. 62] : > 20 nM
c1cc(N2CCC(OCC3CC3)CC2)c2c(cnc3[nH]ccc32)n1 [Ex. 60] : 1 to 20 nM

Per the record, CC(C)CNC(=O)C1CCCN(c2ccnc3cnc4[nH]ccc4c23)C1 (stereo not drawn) [Ex. 67] has IC50 of > 20 nM

Recorded result, N#CCC(=O)N1CC=C(c2ccnc3cnc4[nH]ccc4c23)C1 [Ex. 41] , IC50: > 20 nM

Quick note, IC50 for CC(C)NC(=O)N1CCCC(c2ncnc3cnc4[nH]ccc4c23)C1 (stereo not drawn) [Ex. 32] landed at > 20 nM

Consider O=C(CC(F)(F)F)NC1CCN(c2ccnc3cnc4[nH]ccc4c23)C1 (stereo not drawn) [Ex. 100] . Its measured IC50 is 1 to 20 nM

Sure, the documented IC50 for O=C(NCC(F)(F)F)C1CCCN(c2ccnc3cnc4[nH]ccc4c23)C1 (stereo not drawn) [Ex. 83] is 1 to 20 nM

Note to self: IC50 recorded for CC(C)/C(=N\C#N)N1CCCC(c2ccnc3cnc4[nH]ccc4c23)C1 (stereo not drawn) [Ex. 43] was 1 to 20 nM

For this compound ( O=C(CC(F)(F)F)N1CCN(c2ccnc3cnc4[nH]ccc4c23)CC1 [Ex. 103] ), measured IC50 is > 20 nM

// IC50 lookup, compound = N#CCC(=O)N1CCN(c2ccnc3cnc4[nH]ccc4c23)CC1 [Ex. 102] , result: > 20 nM

response.value for NC1CCN(c2ccnc3cnc4[nH]ccc4c23)C1 (stereo not drawn) [Comp. 125] (field: IC50) = > 20 nM

Lab note: CCC(=O)N1CCCC(c2ncnc3cnc4[nH]ccc4c23)C1 (stereo not drawn) [Ex. 27] gave IC50 of > 20 nM
